Origin of measurements: the supplement of paper PMC6555819

Test system: LXRa homodimer (NR concentration 270 nM)
assay_overview: PBM binding z-score (relative to random genomic background probes); higher = stronger binding; sequences stand for … in GC…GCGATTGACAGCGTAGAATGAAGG
Classify by measured PBM binding z-score: 1.0 if it is equal to or exceeds -0.3, 0.0 if it is smaller.

Please indicate if the recorded PBM binding z-score for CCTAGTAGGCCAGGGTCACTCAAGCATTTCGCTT meets or exceeds -0.3.
0.0

Please indicate if the recorded PBM binding z-score for TCTATTAGTTGATAAGGGCAACCGAAACAGCGGA meets or exceeds -0.3.
1.0

Please indicate if the recorded PBM binding z-score for GCTGGTAGGTCAGGTTGGTCAGCTAACGGGTACG meets or exceeds -0.3.
1.0

Please indicate if the recorded PBM binding z-score for TCATATAGGGAATACAGGTGAAAGTCGGCATCTA meets or exceeds -0.3.
1.0

Please indicate if the recorded PBM binding z-score for TCATATAGGTAAACGGTGAAAGTCGGTGTGGTAA meets or exceeds -0.3.
1.0

Please indicate if the recorded PBM binding z-score for CCGACTGGGGCAGAACGGTTACCATACCATCCGG meets or exceeds -0.3.
0.0

Please indicate if the recorded PBM binding z-score for CCTAGTTGGTCAAGGTCACCCACGCTATAGGTAC meets or exceeds -0.3.
1.0

Please indicate if the recorded PBM binding z-score for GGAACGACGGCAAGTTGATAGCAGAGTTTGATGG meets or exceeds -0.3.
0.0

Please indicate if the recorded PBM binding z-score for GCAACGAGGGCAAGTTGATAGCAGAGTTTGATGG meets or exceeds -0.3.
0.0

Please indicate if the recorded PBM binding z-score for TCTATTAGTTGAAGGCCAACCGACGAGTCCGTTT meets or exceeds -0.3.
1.0

Please indicate if the recorded PBM binding z-score for CATACTGGGCCAAAAAGGTCATTGATGCCGATAA meets or exceeds -0.3.
1.0

###

Tested on: PPARg:RXRa 270nM:90nM, anti-RXR (NR concentration 270 nM, RXRa partner concentration 90 nM)
assay_overview: PBM binding z-score (relative to random genomic background probes); higher = stronger binding; sequences stand for … in GC…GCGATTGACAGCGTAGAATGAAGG
measurement_kind: PBM binding z-score
Write no unit; give the number alone.

Quick note, PBM binding z-score for CAAACTAGGTCACCTGAAGGTCAAAGTCCGCATG landed at 7.17

Quick note, PBM binding z-score for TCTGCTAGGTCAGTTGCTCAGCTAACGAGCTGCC landed at 1.14

Quick note, PBM binding z-score for TTACCAAGGCGAGCTGAGGTCGTTGATCCAACTC landed at 0.0213

Quick note, PBM binding z-score for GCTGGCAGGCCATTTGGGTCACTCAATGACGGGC landed at 0.786

Quick note, PBM binding z-score for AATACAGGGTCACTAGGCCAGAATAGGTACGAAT landed at 6.5

Quick note, PBM binding z-score for CTCGAAAGGTCGTGCTCAGGTGAGTATACCAAAC landed at 3.65

Quick note, PBM binding z-score for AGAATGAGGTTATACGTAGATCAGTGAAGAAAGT landed at 2.13

Quick note, PBM binding z-score for CGTCCCAGGTCATAGGAGGTCAGTGAAGACAGAT landed at 4.13

Quick note, PBM binding z-score for ATCGAAAGGTCGAACGTGAGTATACCCACCCGAA landed at 2.76

Quick note, PBM binding z-score for TCTATTAGTTGATTAGGCCAACCGAAACAGCGGA landed at 2.07

Quick note, PBM binding z-score for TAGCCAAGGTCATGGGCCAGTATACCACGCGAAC landed at 6

Quick note, PBM binding z-score for CCTTACCGGTCACTGACAGGTTATAGCATTTGGA landed at 0.675

Quick note, PBM binding z-score for TCAGACAGGTGAAGGTAACGCAGGTACGCAGTCG landed at 1.98

Quick note, PBM binding z-score for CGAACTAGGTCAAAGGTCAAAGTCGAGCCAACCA landed at 11.4

Quick note, PBM binding z-score for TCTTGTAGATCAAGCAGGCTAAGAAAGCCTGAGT landed at 0.913

Quick note, PBM binding z-score for ATATCTAGGTAACAAGTTCAGTGAAAGAGAGGAC landed at 4.43

Quick note, PBM binding z-score for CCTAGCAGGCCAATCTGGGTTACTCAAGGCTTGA landed at 0.0942

Quick note, PBM binding z-score for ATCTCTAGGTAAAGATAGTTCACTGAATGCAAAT landed at 0.827

Quick note, PBM binding z-score for TCGAGTAGGTTAGGGGCATACAGAATGGCGTCGA landed at 1.65

Quick note, PBM binding z-score for AGAAAGAGGTTATACGTAGATCAGGGAAGAAAGT landed at 1.7

Quick note, PBM binding z-score for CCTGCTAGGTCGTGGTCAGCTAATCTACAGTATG landed at 0.111

Quick note, PBM binding z-score for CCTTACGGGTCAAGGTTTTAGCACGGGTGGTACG landed at 4.44

Quick note, PBM binding z-score for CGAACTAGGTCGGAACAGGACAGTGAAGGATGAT landed at 0.719

Quick note, PBM binding z-score for ATTCCAAGGTGATCGTGAGGTCGTTGATACTAAC landed at 0.382

Quick note, PBM binding z-score for TTACCAAGGTGAAAGGTTGTTGATGCACGCCTTG landed at 6.02

Quick note, PBM binding z-score for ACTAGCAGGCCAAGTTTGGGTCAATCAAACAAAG landed at 0.263

###

System: PPARg:RXRa DBDmut IVT, anti-RXR (DBD mutation: RXRa K156A/R161A, NR concentration 270 nM, RXRa partner concentration 90 nM)
assay_overview: PBM binding z-score (relative to random genomic background probes); higher = stronger binding; sequences stand for … in GC…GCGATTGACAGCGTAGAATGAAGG
measurement_kind: PBM binding z-score
Write no unit; give the number alone.

Quick note, PBM binding z-score for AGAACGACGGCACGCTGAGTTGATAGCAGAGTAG landed at -0.407

Quick note, PBM binding z-score for CCTACTGGGCCAGGAAAGGTCATTGATTCAGTGA landed at 2.65

Quick note, PBM binding z-score for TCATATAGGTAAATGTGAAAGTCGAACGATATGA landed at 3.33

Quick note, PBM binding z-score for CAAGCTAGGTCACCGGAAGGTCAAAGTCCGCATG landed at 4.7

Quick note, PBM binding z-score for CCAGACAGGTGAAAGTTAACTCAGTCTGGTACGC landed at 1.64

Quick note, PBM binding z-score for GCATATAGGTAATACAAGGTGAAGGTCCGATTGT landed at 4.57

Quick note, PBM binding z-score for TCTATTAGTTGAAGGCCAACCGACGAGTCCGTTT landed at 2.37

Quick note, PBM binding z-score for AGAATGATGTTATACGTAGATCAGGGAAGAAAGT landed at -0.521

Quick note, PBM binding z-score for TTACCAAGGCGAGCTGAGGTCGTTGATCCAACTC landed at 0.105

Quick note, PBM binding z-score for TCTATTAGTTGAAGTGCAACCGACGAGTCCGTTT landed at 2.28

Quick note, PBM binding z-score for CCGAGGAGGTTATGGGGCATTCAGGCAACGGTGA landed at 0.461

Quick note, PBM binding z-score for ACTAGTTGGTCAGCTGAGGTCACATACAATTCGG landed at 1.59

Quick note, PBM binding z-score for CATACGGGGTCAGCTAGGCCAGAGTAGGGACGGC landed at 2.55

Quick note, PBM binding z-score for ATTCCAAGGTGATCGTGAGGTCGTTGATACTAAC landed at 0.951

Quick note, PBM binding z-score for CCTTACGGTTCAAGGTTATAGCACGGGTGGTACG landed at -0.682

Quick note, PBM binding z-score for TCATATAGGTAGACAGGTGAAAGTCCGTAAGTTA landed at 3.02

Quick note, PBM binding z-score for CGTCAAAGTTCAATGTAACGTAACAGAAAGCAGC landed at 0.367

Quick note, PBM binding z-score for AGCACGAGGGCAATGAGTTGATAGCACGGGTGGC landed at 1.23

Quick note, PBM binding z-score for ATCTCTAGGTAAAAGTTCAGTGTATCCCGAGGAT landed at 2.32

Quick note, PBM binding z-score for CAAACTAGGTCAGGAAAGGTCAAAGTCGAATGAC landed at 7.59

Quick note, PBM binding z-score for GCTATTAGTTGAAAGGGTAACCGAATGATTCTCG landed at 0.535

Quick note, PBM binding z-score for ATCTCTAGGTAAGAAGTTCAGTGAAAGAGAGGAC landed at 1.18

Quick note, PBM binding z-score for TCTTGTAGGTCAAGCAGGTTAAGAAAGCCTGAGT landed at 7.24

Quick note, PBM binding z-score for CCTTACGGGTCACTCCAGGTTACAGCATCGGAGT landed at 2.73

Quick note, PBM binding z-score for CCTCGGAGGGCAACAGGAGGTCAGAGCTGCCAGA landed at 0.555

Quick note, PBM binding z-score for GCGAATGGGGCAAAGCAGGTTACCATAAGGTTGG landed at 1.67
